Reported R value (DMSO/fragment) for probe 1 labeling values for the following molecules.
- assay.target: SPAST Spastin (Homo sapiens, UniProt Q9UBP0)
- Construct: endogenous in cells; host or cells: MDA-MB-231 lysate
- Sequence (Q9UBP0 whole entry): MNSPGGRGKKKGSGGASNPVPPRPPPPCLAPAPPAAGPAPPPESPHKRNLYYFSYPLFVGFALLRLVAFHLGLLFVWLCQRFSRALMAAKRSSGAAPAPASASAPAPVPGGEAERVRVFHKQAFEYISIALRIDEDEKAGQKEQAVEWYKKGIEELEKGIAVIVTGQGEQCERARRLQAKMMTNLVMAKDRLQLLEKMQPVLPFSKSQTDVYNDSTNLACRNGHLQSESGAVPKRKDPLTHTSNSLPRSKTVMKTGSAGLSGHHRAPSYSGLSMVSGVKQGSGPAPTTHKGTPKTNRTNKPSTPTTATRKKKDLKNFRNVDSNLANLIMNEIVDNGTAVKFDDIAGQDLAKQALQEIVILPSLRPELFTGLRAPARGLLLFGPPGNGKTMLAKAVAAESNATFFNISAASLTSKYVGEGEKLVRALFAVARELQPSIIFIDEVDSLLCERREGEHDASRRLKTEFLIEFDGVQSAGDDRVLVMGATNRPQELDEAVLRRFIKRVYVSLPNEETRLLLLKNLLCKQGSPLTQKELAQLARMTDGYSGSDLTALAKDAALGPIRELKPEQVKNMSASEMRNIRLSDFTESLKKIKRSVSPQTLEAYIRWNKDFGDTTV
- experiment.description: competitive isoTOP-ABPP
- Assay type: binding
- setup.conditions: Q9UBP0_K180; 50 uM, 231 sol, in vitro
value.type: R value (DMSO/fragment) for probe 1 labeling

| molecule | recorded.number |
| --- | --- |
| Cn1cc(CC(=O)Oc2c(F)c(F)c(F)c(F)c2F)c2ccccc21 | 1.0 |
| O=C(CCc1cn(-c2ccccc2)nc1-c1ccccc1)Oc1c(F)c(F)c(F)c(F)c1F | 1.3 |
| O=C(Oc1c(F)c(F)c(F)c(F)c1F)c1cc(C(F)(F)F)cc(C(F)(F)F)c1 | 1.8 |
| O=C(Oc1c(F)c(F)c(F)c(F)c1F)C(c1ccccc1)c1ccccc1 [fragment 20, Pentafluorophenyl 2,2-diphenylacetate] | 1.2 |
